Molecular target: Lysine-specific demethylase 4A (Homo sapiens)
Sequence (O75164 whole entry): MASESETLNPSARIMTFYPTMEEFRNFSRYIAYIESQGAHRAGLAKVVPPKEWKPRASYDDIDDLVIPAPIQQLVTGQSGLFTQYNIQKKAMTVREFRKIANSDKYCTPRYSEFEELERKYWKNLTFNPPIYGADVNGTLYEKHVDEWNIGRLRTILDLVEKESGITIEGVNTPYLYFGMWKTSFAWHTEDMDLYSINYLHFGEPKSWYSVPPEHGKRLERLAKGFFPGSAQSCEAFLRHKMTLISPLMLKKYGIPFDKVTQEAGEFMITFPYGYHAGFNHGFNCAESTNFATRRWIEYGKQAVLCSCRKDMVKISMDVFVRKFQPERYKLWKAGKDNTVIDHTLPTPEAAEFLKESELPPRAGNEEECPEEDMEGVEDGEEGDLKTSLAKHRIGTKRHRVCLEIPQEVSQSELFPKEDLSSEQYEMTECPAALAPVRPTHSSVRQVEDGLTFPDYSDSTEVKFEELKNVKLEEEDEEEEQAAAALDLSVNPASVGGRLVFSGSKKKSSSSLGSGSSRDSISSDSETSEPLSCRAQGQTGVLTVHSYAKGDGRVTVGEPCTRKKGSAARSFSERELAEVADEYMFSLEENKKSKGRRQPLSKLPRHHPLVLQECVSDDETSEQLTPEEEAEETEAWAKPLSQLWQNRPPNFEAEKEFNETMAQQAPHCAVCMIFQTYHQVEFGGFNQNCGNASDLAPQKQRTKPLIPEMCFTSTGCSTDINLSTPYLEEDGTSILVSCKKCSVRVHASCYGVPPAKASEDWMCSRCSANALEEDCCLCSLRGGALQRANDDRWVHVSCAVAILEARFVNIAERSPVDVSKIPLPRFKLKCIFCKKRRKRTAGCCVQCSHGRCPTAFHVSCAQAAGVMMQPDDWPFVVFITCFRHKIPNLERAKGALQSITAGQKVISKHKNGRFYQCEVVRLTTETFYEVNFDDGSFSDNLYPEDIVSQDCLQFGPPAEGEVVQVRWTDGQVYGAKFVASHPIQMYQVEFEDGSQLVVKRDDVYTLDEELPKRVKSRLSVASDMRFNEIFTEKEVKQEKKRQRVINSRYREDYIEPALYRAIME
Outcome measure: IC50 (nM)

P. CCCCN(C)CCN(CC)C(=O)CNCc1cc(C(=O)O)ccn1
Q. CCN(CCN(C)C)C(=O)CNCc1cc(C(=O)O)ccn1
INPUT: Two entries are listed, P and Q . Which one carries the higher IC50? // return label of chosen record
OUTPUT: P
(P: 389 nM, Q: 172 nM)

---

Biological target: Lysine-specific demethylase 6B (Homo sapiens)
Sequence (O15054 whole entry): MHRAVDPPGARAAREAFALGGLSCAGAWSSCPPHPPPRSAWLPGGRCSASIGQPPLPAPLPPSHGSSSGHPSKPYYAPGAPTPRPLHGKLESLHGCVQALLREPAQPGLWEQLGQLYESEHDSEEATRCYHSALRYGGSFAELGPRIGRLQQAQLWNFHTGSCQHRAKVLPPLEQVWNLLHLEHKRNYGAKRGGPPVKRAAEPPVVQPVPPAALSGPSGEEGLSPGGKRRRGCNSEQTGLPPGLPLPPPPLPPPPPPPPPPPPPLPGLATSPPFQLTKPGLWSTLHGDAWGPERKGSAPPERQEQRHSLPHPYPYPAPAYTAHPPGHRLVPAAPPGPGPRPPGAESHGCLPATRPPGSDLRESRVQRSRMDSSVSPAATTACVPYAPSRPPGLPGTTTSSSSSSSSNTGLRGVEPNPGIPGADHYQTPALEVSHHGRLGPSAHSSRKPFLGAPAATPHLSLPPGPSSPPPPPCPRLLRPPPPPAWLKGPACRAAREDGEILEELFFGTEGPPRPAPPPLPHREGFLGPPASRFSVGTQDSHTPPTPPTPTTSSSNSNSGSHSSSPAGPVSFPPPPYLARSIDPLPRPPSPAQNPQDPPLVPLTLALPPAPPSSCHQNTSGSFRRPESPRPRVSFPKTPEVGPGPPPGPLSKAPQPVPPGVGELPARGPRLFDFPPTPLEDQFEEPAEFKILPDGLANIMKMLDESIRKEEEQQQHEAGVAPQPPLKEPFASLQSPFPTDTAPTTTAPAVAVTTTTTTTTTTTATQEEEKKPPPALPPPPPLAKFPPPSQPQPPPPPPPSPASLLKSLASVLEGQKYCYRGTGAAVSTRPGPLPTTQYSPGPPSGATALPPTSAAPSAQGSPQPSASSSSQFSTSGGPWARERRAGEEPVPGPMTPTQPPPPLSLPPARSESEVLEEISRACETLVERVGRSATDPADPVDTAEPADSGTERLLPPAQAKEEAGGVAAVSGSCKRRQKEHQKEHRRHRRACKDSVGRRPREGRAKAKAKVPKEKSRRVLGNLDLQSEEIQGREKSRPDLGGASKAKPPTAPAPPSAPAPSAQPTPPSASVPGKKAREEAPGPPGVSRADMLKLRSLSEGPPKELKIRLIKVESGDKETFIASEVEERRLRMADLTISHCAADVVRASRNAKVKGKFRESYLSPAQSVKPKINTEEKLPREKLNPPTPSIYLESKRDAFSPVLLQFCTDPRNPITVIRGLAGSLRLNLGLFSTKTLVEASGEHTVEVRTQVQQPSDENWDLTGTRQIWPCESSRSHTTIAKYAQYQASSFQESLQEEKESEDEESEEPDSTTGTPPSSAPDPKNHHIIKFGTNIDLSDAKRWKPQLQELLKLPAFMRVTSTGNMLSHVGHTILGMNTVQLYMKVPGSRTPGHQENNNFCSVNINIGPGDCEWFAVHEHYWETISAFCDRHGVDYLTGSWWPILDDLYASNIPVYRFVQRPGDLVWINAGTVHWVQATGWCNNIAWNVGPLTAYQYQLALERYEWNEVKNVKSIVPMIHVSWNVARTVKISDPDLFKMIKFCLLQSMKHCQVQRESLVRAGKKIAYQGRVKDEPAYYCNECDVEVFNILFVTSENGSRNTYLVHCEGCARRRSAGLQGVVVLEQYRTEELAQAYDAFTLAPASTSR
Outcome measure: IC50

INPUT: // IC50 lookup, key: CCN(CCN(C)C)C(=O)CNCc1cc(C(=O)O)ccn1
OUTPUT: > 5 µM
